- System Under Test: human collagenase-3 catalytic domain enzyme (MMP13) (Homo sapiens, UniProt P45452)
- Construct: human collagenase-3 catalytic domain enzyme
- Test Details: MMP13CD Thiopeptolide Assay
- Format: biochemical
pIC50: −log10 of the molar value.
Property: pIC50

# input // pIC50 lookup, key: Cc1ccc(CNC(=O)c2ccc3[nH]c(=O)n(Cc4ccccc4)c(=O)c3c2)cc1 [Example 8]
# output 5.73

P. COc1ccc(CNC(=O)c2ccc3c(c2)c(=O)n(Cc2ccc(OC)cc2)c(=O)n3C)cc1 [Example 18]
Q. O=C(OCc1ccncc1)c1cnc2[nH]c(=O)n(Cc3ccccc3)c(=O)c2c1 [Example 47]
R. Cn1c(=O)n(C/C=C/c2ccccc2)c(=O)c2cc(C(=O)NCc3ccc4c(c3)OCO4)ccc21 [Example 36]
# input Please list these in order of increasing pIC50. Thank you! Order the labels as requested and give them as your answer.
# output Q, R, P

Hey, just so you know, these numbers are from patent US20020193377A1.
